In this section, each of the binders is paired with its reported pKd.
# measurement target: T1, human FAPα-His tag (Sino biological) (human, UniProt Q12884 26-760)
# T1 construct: Bought protein; also called human FAPα-His protein; not shown: His tag
# T1 sequence (looked up): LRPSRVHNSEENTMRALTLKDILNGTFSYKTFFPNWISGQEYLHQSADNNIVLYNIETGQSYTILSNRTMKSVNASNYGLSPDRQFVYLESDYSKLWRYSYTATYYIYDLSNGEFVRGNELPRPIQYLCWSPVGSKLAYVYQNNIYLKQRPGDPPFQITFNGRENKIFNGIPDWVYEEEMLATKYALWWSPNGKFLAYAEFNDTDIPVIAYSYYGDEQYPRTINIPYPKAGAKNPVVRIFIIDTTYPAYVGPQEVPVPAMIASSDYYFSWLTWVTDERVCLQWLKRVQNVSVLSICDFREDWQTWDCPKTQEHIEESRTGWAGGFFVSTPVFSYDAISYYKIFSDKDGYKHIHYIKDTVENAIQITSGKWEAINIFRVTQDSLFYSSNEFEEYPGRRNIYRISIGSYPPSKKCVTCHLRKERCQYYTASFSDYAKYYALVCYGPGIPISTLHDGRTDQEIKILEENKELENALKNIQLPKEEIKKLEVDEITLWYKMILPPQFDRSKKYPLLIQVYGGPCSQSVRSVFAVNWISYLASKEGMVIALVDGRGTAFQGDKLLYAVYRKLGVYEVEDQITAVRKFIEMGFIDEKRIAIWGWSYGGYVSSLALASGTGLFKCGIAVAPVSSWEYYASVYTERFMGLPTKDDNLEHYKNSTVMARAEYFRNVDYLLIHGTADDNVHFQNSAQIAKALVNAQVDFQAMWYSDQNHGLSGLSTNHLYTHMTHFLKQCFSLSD
# procedure details: SPR (Biacore T200), mAb captured on Protein A chip, human FAPα-His as analyte
Value format note: pKd is -log10 of concentration (mol/L); just state the number.

Here is how some binders turned out for pKd.
[
  {
    "binder": "I37 (antibody, V domains shown, Tested as a mAb; also called FAP-I37) VH: QLQLVESGGGLVQPGGSLRLSCAASGFTFSSYAMSWVRQAPGKGLEWVSAISGSGGSTYYADSVKGRFTISRDNSKNTLYLQMNSLRAEDTAVYYCARDKPWGGSFDYWGQGTLVTVSA VL: DIQLTQSPSSLSASVGDRVTITCRASQGISSWLAWYQQKPGKAPKLLIYAASSLQSGVPSRFSGSGSGTDFTLTISSLQPEDFATYYCQQANSFPVTFGPGTKVDIK",
    "property": "pKd",
    "measurement": 9.07
  },
  {
    "binder": "J40 (antibody, V domains shown, Tested as a mAb; also called FAP-J40; FAP-J40-Bio (biotin-conjugated form)) VH: EVQLLESGGGLVQPGGSLRLSCAASGFTFSSYAMSWVRQAPGKGLEWVSAISGSGGSTYYADSVKGRFTISRDNSKNTLYLQMNSLRTDDTAVYYCARDLTTSTGWESWGQGTLVTVSA VL: NIQMTQSPSSVSASVGDRVTITCRASQGISSWLAWYQQKPGKAPKLLIYAASSLQSGVPSRFSGSGSGTDFTLTISSLQPEDFATYYCQQANSFPPTFGQGTKLEIK",
    "property": "pKd",
    "measurement": 8.99
  }
]

# evaluate next
[Q] Fill blank: measured pKd of the binder I38 (antibody, V domains shown, Tested as a mAb; also called FAP-I38) VH: EVQLVQSGAEVKEPGVSVKVSCKASGYTFASYGLSWVRLAPGQGLQWMGWISPYTPNPIYAPNFRDKVILTTDRSTNTAYLEVRSLRSDDTGLYYCARNHWVGRPTRAFDLWGQGTMVTVSA VL: EIVLTQSPGTLSLSPGERATLSCRASQTVSITHLAWYQQKPGQAPRLLTYGASARATGIPDRFSVSGSGTDFTLTITRLEPEDFAVYYCQHYGSSITFGGGTKVEIK is ____.
[A] 8.95

Data provenance is patent US20250297032A1.
